- assay.comment: acute toxicity (LD50) in mice
- condition.notes: mouse, in vivo, iv; dosed intravenously (table 1); read-out: LD50
endpoint.label: LD50 (mg/kg)
Give bare numbers, in mg/kg.

Example molecules with recorded LD50:
>>> df
                                   molecule  quantitative_readout
0  CN1CCC2(CC1)c1ccccc1C(C)(O)c1c(O)cccc12 (stereo not drawn) [Me 4-OH H OH Me]                    25
1  CC(=O)Oc1cccc2c1Cc1ccccc1C21CCN(C)CC1 [Me 4-OAc H H H]                    43

Exam item: Name the recorded LD50 for Cc1ccc2c(c1)C1(CCN(C)CC1)c1ccccc1C2O (stereo not drawn) [Me 2-Me H OH H] .
Marked response: 37

----------
- assay.comment: acute toxicity (LD50) in mice
- condition.notes: mouse, in vivo; mice, intravenous; read-out: intravenous LD50
endpoint.label: LD50 (mg/kg)
Numbers only, in mg/kg.

Exam item: Name the recorded LD50 for CN1CCC2(CC1)c1ccccc1C(O)c1ccccc12 .
Marked response: 40
